target: UniProt Q8VIJ5
Assay type: cell-based
run_conditions: cells expressing endogenous O-GlcNAcase (such as rat B35, rat PC-12, human SH-SY5Y), approximately 16 hours treatment; read-out: OGA cellular inhibition (EC50)
pEC50: −log10 of the molar value.
Would you kindly list pEC50 for each of these compounds?

[
  {
    "smiles_input": "CCNC1=N[C@@H]2[C@@H](O)[C@H](O)[C@@H](Cn3cc(COc4ccccc4C#N)nn3)O[C@@H]2S1",
    "pEC50": "< 6.00"
  },
  {
    "smiles_input": "CCNC1=N[C@@H]2[C@@H](OS(C)(=O)=O)[C@H](O)[C@@H](CO)O[C@@H]2S1",
    "pEC50": "6.30 to 7.00"
  },
  {
    "smiles_input": "CCNC1=N[C@@H]2[C@@H](O)[C@H](O)[C@@H](Cn3cc(COc4ccc(F)cc4)nn3)O[C@@H]2S1",
    "pEC50": "< 6.00"
  },
  {
    "smiles_input": "CCNC1=N[C@@H]2[C@@H](O)[C@H](O)[C@@H](Cn3cc(Cn4cccc4)nn3)O[C@@H]2S1",
    "pEC50": "< 6.00"
  },
  {
    "smiles_input": "CCNC1=N[C@@H]2[C@@H](O)[C@H](O)[C@@H](Cn3cc(C(=O)OC)nn3)O[C@@H]2S1",
    "pEC50": "6.00 to 6.30"
  }
]

Dear colleague, could you please provide pEC50 for the compounds listed below?
1. CCNC1=N[C@@H]2[C@@H](O)[C@H](O)[C@@H](Cn3cc(COc4ccccc4O)nn3)O[C@@H]2S1
2. CCNC1=N[C@@H]2[C@@H](O)[C@H](O)[C@@H](Cn3cc(COc4ccccc4C)nn3)O[C@@H]2S1

Completion:
1: < 6.00; 2: 6.00 to 6.30
